# Assayed Target: human IL-17AA (Homo sapiens, UniProt Q16552)
# Sequence (Q16552 24-155): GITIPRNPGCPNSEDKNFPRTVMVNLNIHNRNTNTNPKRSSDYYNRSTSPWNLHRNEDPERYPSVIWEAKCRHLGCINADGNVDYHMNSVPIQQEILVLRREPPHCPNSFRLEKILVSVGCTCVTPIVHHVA
# Sequence (Q16552 24-155): as above
# Assay Summary: IL-8 release assay in human epithelial keratinocytes adult (HEKa)
# Condition Label: 3 ng/ml human IL-17AA + 10 ng/ml human TNFalpha, 68-72 h, IL-8 by HTRF, read-out: Rel EC50 L-8 release assay
pEC50: −log10 of the molar value.
Quantity: pEC50

>>> value_measured("Cn1cncc1-c1ccc(NC(=O)C(Cc2cc(-c3ccnc(N4CC5(CNC5)C4)c3)ccc2Cl)NC(=O)c2ccnn2C)cc1 (stereo not drawn)")
"6.00 to 7.00"
>>> value_measured("Cc1nocc1C(=O)NC(Cc1cc(-c2cccc(C(=O)N3CCC3)c2)ccc1Cl)C(=O)Nc1ccc(-c2nncn2C)cc1 (stereo not drawn)")
"< 6.00"
>>> value_measured("Cc1n[nH]c(C)c1-c1ccc(NC(=O)[C@@H](NC(=O)c2ccnn2C)[C@@H]2CCc3ccc(-c4ccc(CN5CCCCC5)cc4)cc32)cc1")
"6.00 to 7.00"
>>> value_measured("Cc1n[nH]cc1-c1ccc(NC(=O)C(NC(=O)OC2CC2)C(c2ccccc2)c2cccc(-c3ccc(=O)n(C(C)C)c3)c2)cc1 (single isomer, unassigned; diastereomer 3) [Example 244]")
"< 6.00"
>>> value_measured("CC(C)n1cc(-c2ccc(Cl)c(C[C@H](NC(=O)c3ccnn3C)C(=O)Nc3ccc(-c4cncn4C)c(F)c3)c2)ccc1=O")
"6.00 to 7.00"
>>> value_measured("Cc1cnn(C)c1-c1ccc(NC(=O)[C@H](Cc2cc(-c3ccc(=O)n(C(C)C)c3)ccc2Cl)NC(=O)C2CC2)cc1")
"6.00 to 7.00"
